- Test system: LNCaP tumor-bearing CB17-SCID mice
- protocol: Biodistribution studies 24 h p.i.
- Assay type: in vivo
- test-context: 177Lu-labelled, mean±SD, n=4-5
measurement-name: biodistribution: submandibularis (% ID/g)
Numbers only, in % ID/g.

>>> recorded_value("CC(C)(C)[Si](O)(c1ccc(C(=O)N[C@H](CCC(=O)NC[C@@H](NC(=O)CC[C@@H](C(=O)O)N2CCN(CC(=O)O)CCN(CC(=O)O)CCN(CC(=O)O)CC2)C(=O)NCCCCCC(=O)NCCC[C@@H](NC(=O)CC[C@H](NC(=O)N[C@@H](CCC(=O)O)C(=O)O)C(=O)O)C(=O)O)C(=O)O)cc1)C(C)(C)C")
0.03
>>> recorded_value("CC(C)(C)[Si](O)(c1ccc(C(=O)NC[C@@H](NC(=O)CC[C@@H](C(=O)O)N2CCN(CC(=O)O)CCN(CC(=O)O)CCN(CC(=O)O)CC2)C(=O)N[C@H](CO)C(=O)NCCC(=O)NCCC(=O)NCCC[C@@H](NC(=O)CC[C@H](NC(=O)N[C@@H](CCC(=O)O)C(=O)O)C(=O)O)C(=O)O)cc1)C(C)(C)C")
0.03
>>> recorded_value("CC(C)(C)[Si](F)(c1ccc(C(=O)NC[C@@H](NC(=O)CC[C@@H](C(=O)O)N2CCN(CC(=O)O)CCN(CC(=O)O)CCN(CC(=O)O)CC2)C(=O)N[C@H](CCCCNC(=O)CCC(=O)NCCC[C@@H](NC(=O)CC[C@H](NC(=O)N[C@@H](CCC(=O)O)C(=O)O)C(=O)O)C(=O)O)C(=O)O)cc1)C(C)(C)C [rhPSMA-7.3, reference compound]")
0.05

CC(C)(C)[Si](O)(c1ccc(C(=O)NC[C@@H](NC(=O)CC[C@@H](C(=O)O)N2CCN(CC(=O)O)CCN(CC(=O)O)CCN(CC(=O)O)CC2)C(=O)NCC(=O)N[C@@H](CCCCNC(=O)CCC(=O)NCCC[C@@H](NC(=O)CC[C@H](NC(=O)N[C@@H](CCC(=O)O)C(=O)O)C(=O)O)C(=O)O)C(=O)O)cc1)C(C)(C)C yielded biodistribution: submandibularis of 0.01

// provenance: patent US20230277698A1
